# MEASURED ON: ABL1 (64-515) (Homo sapiens (Human), UniProt P00519)
# Sequence (P00519 64-515): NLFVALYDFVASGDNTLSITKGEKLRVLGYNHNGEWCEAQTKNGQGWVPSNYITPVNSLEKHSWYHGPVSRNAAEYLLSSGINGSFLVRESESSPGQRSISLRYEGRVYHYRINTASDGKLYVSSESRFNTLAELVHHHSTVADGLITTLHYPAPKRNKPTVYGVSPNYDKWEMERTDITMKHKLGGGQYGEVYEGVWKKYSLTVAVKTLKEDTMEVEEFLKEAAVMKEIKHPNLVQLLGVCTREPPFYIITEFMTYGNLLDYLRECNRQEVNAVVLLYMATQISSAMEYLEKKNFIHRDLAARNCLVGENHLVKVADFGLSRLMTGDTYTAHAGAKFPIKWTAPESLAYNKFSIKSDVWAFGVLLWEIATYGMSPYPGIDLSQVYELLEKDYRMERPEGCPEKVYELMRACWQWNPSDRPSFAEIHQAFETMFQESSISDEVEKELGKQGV
# PROCEDURE SUMMARY: Caliper ABL1 (64-515) assay (microfluidic mobility shift)
# Assay type: biochemical
RECORDED METRIC: pIC50
pIC50 is a log-scale quantity: -log10 of the concentration expressed in molar.

In: Item Cc1ccc(-c2cc(C(=O)Nc3ccc(OC(F)(F)F)cc3)cnc2N2CC(O)C2)cn1 has what recorded pIC50?
Out: 8.96

In: Same question for CN(CCO)c1ncc(C(=O)Nc2ccc(SC(F)(F)F)cc2)cc1-c1cncnc1 please.
Out: 8.89

In: Request: Nc1ncc(-c2cc(C(=O)Nc3ccc(OC(F)(F)Cl)cc3)cnc2N2CC[C@@H](O)C2)cc1F
Out: 9.15

In: Follow-up item: Nc1ncc(-c2cc(C(=O)Nc3ccc(OC(F)(F)F)cc3)cnc2N2CCCC2)cn1
Out: 9.05

====

# MEASURED ON: ABL1 (64-515) (Homo sapiens (Human), UniProt P00519)
# PROCEDURE SUMMARY: Radio ABL1 (64-515) assay (radiometric filter-binding)
# Format: biochemical
RECORDED METRIC: pIC50
Please note pIC50 is a logarithmic value: minus log10 of concentration in mol/L. Answer with that number alone.

In: Need pIC50, item CCN(CCO)c1ncc(C(=O)Nc2ccc(OC(F)(F)Cl)cc2)cc1-c1cncnc1
Out: 8.40

In: Item: Cc1ncc(-c2cc(C(=O)Nc3ccc(OC(F)(F)F)cc3)cnc2N2CC(CO)C2)cc1F
Out: 8.40

In: Next compound: CCN(CCO)c1ncc(C(=O)Nc2ccc(SC(F)(F)F)cc2)cc1-c1cncc(C#N)c1
Out: 7.80

In: Let us now turn to N[C@@H]1[C@H]2CN(c3ncc(C(=O)Nc4ccc(OC(F)(F)Cl)cc4)cc3-c3cncnc3)C[C@@H]12
Out: 8.70

In: Continue with O=C(Nc1ccc(SC(F)(F)F)c(F)c1)c1cnc(N2CC[C@@H](O)C2)c(-c2cncc(F)c2)c1
Out: 8.22

====

# MEASURED ON: ABL1 (64-515) (Homo sapiens (Human), UniProt P00519)
# PROCEDURE SUMMARY: Radio ABL1 (64-515) assay (radiometric filter-binding)
# Assay type: biochemical
RECORDED METRIC: IC50 (nM)
// return numeric value only (unit: nM, not printed)

In: Which IC50 value belongs to O=C(Nc1ccc(OC(F)(F)F)cc1)c1cnc(N2CC(CO)C2)c(-c2cccnc2)c1 ?
Out: 6

In: Cool, now CCN(CCO)c1ncc(C(=O)Nc2ccc(OC(F)(F)F)cc2)cc1-c1cncc(C#N)c1
Out: 37

In: Okay, and N#Cc1cncc(-c2cc(C(=O)Nc3ccc(C(F)(F)C(F)(F)F)cc3)cnc2N2CC[C@@H](O)C2)c1 ?
Out: 4

====

I'd appreciate it if you could supply IC50 values for the items below.
# MEASURED ON: ABL1 (64-515) (Homo sapiens (Human))
# PROCEDURE SUMMARY: Caliper ABL1 (64-515) assay (microfluidic mobility shift)
# Type: biochemical
Only the number, expressed in pM, is required.

In: Entry N#Cc1ccc(F)cc1-c1cc(C(=O)Nc2ccc(OC(F)(F)Cl)cc2)cnc1N1CC[C@@H](O)C1 : reported IC50 = ?
Out: 1500

In: Try this compound next: N#Cc1ncc(F)cc1-c1cc(C(=O)Nc2ccc(OC(F)(F)Cl)cc2)cnc1N1CC[C@@H](O)C1
Out: 500

In: Okay, and N#Cc1cncc(-c2cc(C(=O)Nc3ccc(SC(F)(F)F)cc3)cnc2N2CC[C@H](CO)C2)c1 ?
Out: 900

In: Another compound to check: O=C(Nc1ccc(OC(F)(F)F)cc1)c1cnc(N2CC[C@@H](O)C2)c(-c2ccc(C(F)(F)F)nc2)c1
Out: 2900

In: What about O=C(Nc1ccc(OC(F)(F)F)cc1)c1cnc(N2CC[C@@H](O)C2)c(-c2ccc(CO)nc2)c1 ?
Out: 800

In: And O=C(Nc1ccc(OC(F)(F)F)cc1)c1cnc(N2CC[C@@H](O)C2)c(-c2cc(F)cc(F)c2)c1 ?
Out: 500

In: // same read-out, input: CN[C@H]1CCN(c2ncc(C(=O)Nc3ccc(OC(F)(F)F)cc3)cc2-c2cncnc2)C1
Out: 2300

In: Proceed to O=C(Nc1ccc(OC(F)(F)F)cc1)c1cnc(N2CC[C@@H](O)C2)c(-c2cnc(Cl)c(F)c2)c1
Out: 400

In: Please give the result for O=C(Nc1ccc(OC(F)(F)F)cc1)c1cnc(N2CCCC2)c(-c2ccc(CO)nc2)c1 too.
Out: 500

In: Moving on to O=C(Nc1ccc(OC(F)(F)F)cc1)c1ccc(N2CC[C@@H](O)C2)c(-c2cccnc2)c1
Out: 2700

In: Moving on to the next compound: CC(C)(C)Oc1ccc(NC(=O)c2cnc(N3CC[C@@H](O)C3)c(-c3cncnc3)c2)cc1
Out: 16000

In: Now give it for Cc1ccc(-c2cc(C(=O)Nc3ccc(OC(F)(F)F)cc3)ccc2N2C[C@H](O)[C@@H](O)C2)cn1 too.
Out: 1800

In: Quick one: N#Cc1ccncc1-c1cc(C(=O)Nc2ccc(OC(F)(F)Cl)cc2)cnc1N1CC[C@@H](O)C1
Out: 400

In: Repeat with CC(C)(O)C1CN(c2ncc(C(=O)Nc3ccc(OC(F)(F)F)cc3)cc2-c2cccnc2)C1
Out: 1100

In: Also Cc1ncc(-c2cc(C(=O)Nc3ccc(OC(F)(F)Cl)cc3)cnc2N2C[C@H](O)[C@@H](O)C2)cn1 ?
Out: 700
